Where do the numbers come from? From patent US8853424B2.

# Test system: transglutaminase (TGase)
# experimental.details: Measurement of TG (TGase inhibitory activity, monodansyl cadaverine / N,N-dimethylcasein fluorescence, FDSS 3000)
# Format: biochemical
# setup.conditions: TGase inhibitory activity value, Table 1
Below: a set of entries, each annotated with reported TGase activity remaining (% of DMSO control = 100).
readout.label: TGase activity remaining (% of DMSO control = 100)

- CN(C)CCOB(c1ccccc1)c1ccc(Oc2ccc(B(OCCN(C)C)c3ccc(CO)cc3)cc2)cc1: 83
- NCCOB(c1cc(Cl)ccc1F)c1cc(Cl)ccc1F: 119
- OB(O)c1ccc(F)c(Cl)c1: 97
- OB(c1ccc(COCCOc2ccc(B(O)c3cccs3)cc2)cc1)c1cccs1: 97
- CN(C)CCOB(c1ccccc1)c1cccc2ccccc12: 97
- CN(C)CCOB(c1ccc(Cl)c(F)c1)c1ccc(Cl)c(F)c1: 114
- c1ccc(B(OC(c2ccccc2)c2ccccn2)c2ccccc2COCc2ccccc2B(OC(c2ccccc2)c2ccccn2)c2ccccc2)cc1 (stereo not drawn): 106
- NCCOB(c1ccccc1)c1cccc(COCc2ccccc2B(OCCN)c2ccccc2)c1: 21
- CCC(C)B(OCCN)c1ccccc1 (stereo not drawn): 115

---

# Tested on: transglutaminase (TGase)
# experimental.details: Measurement of TG (TGase inhibitory activity, monodansyl cadaverine / N,N-dimethylcasein fluorescence, FDSS 3000)
# Assay type: biochemical
# setup.conditions: TGase inhibitory activity measurement; unit not given
So basically: is TGase activity remaining (% of DMSO control = 100) under 30? Then 1.0. Not under? Then 0.0.

* c1ccc(B(OCc2ccccn2)c2ccc(Oc3ccc(B(OCc4ccccn4)c4ccccc4)cc3)cc2)cc1 | 0.0
* CNCCOB(c1ccccc1)c1cccc(COCc2cccc(B(OCCNC)c3ccccc3)c2)c1 | 1.0
* CNCCOB(c1ccc(COCc2ccc(B(OCCNC)c3ccc(OC)cc3)cc2)cc1)c1ccc(OC)cc1 | 1.0
* OB(c1ccc(COCc2ccc(B(O)c3ccc(F)c(F)c3)cc2)cc1)c1ccc(F)c(F)c1 | 0.0
* CNCCOB(c1ccc(COCc2ccc(B(OCCNC)c3ccc(C)c(Cl)c3)cc2)cc1)c1ccc(C)c(Cl)c1 | 1.0
* NCCCC(N)C(=O)OB(c1ccccc1)c1cccc(COCc2cccc(B(OC(=O)C(N)CCCN)c3ccccc3)c2)c1 (stereo not shown) | 0.0
* c1ccc(CNCCOB(c2ccccc2)c2ccc(COCc3ccc(B(OCCNCc4ccccc4)c4ccccc4)cc3)cc2)cc1 | 1.0

---

# System: transglutaminase (TGase)
# experimental.details: Measurement of TG (TGase inhibitory activity, monodansyl cadaverine / N,N-dimethylcasein fluorescence, FDSS 3000)
# Type: biochemical
# setup.conditions: TGase activity with compound (10 mM, 1 μL in 0.1 ml enzyme reaction solution); DMSO control taken as 100
readout.label: TGase activity remaining (% of DMSO control = 100)

- OB(CCCCB(O)c1ccccc1)c1ccccc1 [Example 113, 1,4-bis(hydroxyphenylboryl)butane]: 112
- COc1ccc(B(OC(=O)C(N)CCN)c2ccc(COCc3ccc(B(OC(=O)C(N)CCN)c4ccc(OC)cc4)cc3)cc2)cc1 (stereo not shown): 130
- CNCCOB(c1ccc(COCc2ccc(B(OCCNC)c3ccc(F)c(F)c3)cc2)cc1)c1ccc(F)c(F)c1: 91
- Cc1ccc(B(OCCN)c2ccc(-c3ccc(B(OCCN)c4ccc(C)cc4)cc3)cc2)cc1: 44
- NCC(N)C(=O)OB(c1ccccc1)c1ccccc1 (stereo not shown) [Example 174]: 103
- OB(c1cc(F)cc(Cl)c1)c1cc(F)cc(Cl)c1: 122
- Cc1ccc(B(OCC2CCCCN2)c2ccc(COCc3ccc(B(OCC4CCCCN4)c4ccc(C)c(Cl)c4)cc3)cc2)cc1Cl (stereo not shown): 27

---

# Test system: transglutaminase (TGase)
# experimental.details: Measurement of TG (TGase inhibitory activity, monodansyl cadaverine / N,N-dimethylcasein fluorescence, FDSS 3000)
# Format: biochemical
# setup.conditions: TGase inhibitory activity value, Table 1
readout.label: TGase activity remaining (% of DMSO control = 100)

- OB(c1cc(F)c(F)c(F)c1)c1cc(F)c(F)c(F)c1 [Example 81, bis(3,4,5-trifluorophenyl)borinic acid]: 97
- O=C(O)CC1[NH2+][B-](c2ccccc2)(c2ccccc2)OC1=O (stereo not shown) [Example 257]: 103
- OB(c1ccc(F)cc1)c1cccc(COCc2cccc(B(O)c3ccc(F)cc3)c2)c1 [Example 336]: 101
- NCCCCC(N)C(=O)OB(c1ccccc1)c1ccccc1 (stereo not shown) [Example 271, diphenyl(lysinate-O,N)borane]: 109
- NCCOB(c1ccccc1)c1ccc2ccccc2c1-c1c(B(OCCN)c2ccccc2)ccc2ccccc12 [Example 360]: 88
- OB(c1ccc(COCc2ccc(B(O)c3ccc(C(F)(F)F)cc3)cc2)cc1)c1ccc(C(F)(F)F)cc1 [Example 143]: 118
- CC(C)(C)c1cc(B(O)c2ccccc2)c2c(c1)C(C)(C)c1cc(C(C)(C)C)cc(B(O)c3ccccc3)c1O2 [Example 377]: 70
- OCCCCB(O)c1ccccc1 [Example 114, 4-hydroxybutylphenylborinic acid]: 120
- NCCSB(c1ccccc1)c1ccccc1 [Example 151, 2-aminoethylthiodiphenylborane]: 33
- NCCSB(c1ccc(C(F)(F)F)cc1)c1ccc(C(F)(F)F)cc1 [Example 285]: 51
- Cc1cc(B(OCCN)c2cccc(COCc3ccccc3B(OCCN)c3ccc(Cl)c(C)c3)c2)ccc1Cl [Example 351]: 103
- NCCOB(c1ccccc1)c1ccc(B(OCCN)c2ccccc2)o1 [Example 384, bis(2,5-(phenylaminoethoxyboryl))furan]: 60
- OB(c1ccc(Cl)cc1F)c1ccc(Cl)cc1F [Example 79, bis(4-chloro-2-fluorophenyl)borinic acid]: 97
- NCCNCCOB(c1ccccc1)c1ccccc1 [Example 154, diphenyl 2-aminoethylaminoethyl borinate]: 105
- CCCCC(N)C(=O)OB(c1ccccc1)c1ccccc1 (stereo not shown) [Example 226]: 97
- Cc1ccc(B(O)c2ccc(COCc3ccc(B(O)c4ccc(C)cc4)cc3)cc2)cc1 [Example 361]: 100

---

# Test system: transglutaminase (TGase)
# experimental.details: Measurement of TG (TGase inhibitory activity, monodansyl cadaverine / N,N-dimethylcasein fluorescence, FDSS 3000)
# Assay type: biochemical
# setup.conditions: TGase activity with compound (10 mM, 1 μL in 0.1 ml enzyme reaction solution); DMSO control taken as 100
readout.label: TGase activity remaining (% of DMSO control = 100)

- OB(c1ccsc1)c1ccc2sc3ccc(B(O)c4ccsc4)cc3c2c1 [Example 406]: 61
- NC(=O)CC(N)C(=O)OB(c1ccccc1)c1cccc(COCc2cccc(B(OC(=O)C(N)CC(N)=O)c3ccccc3)c2)c1 (centres unmarked) [Example 404]: 105
- CC(C)CC(N)C(=O)OB(c1ccccc1)c1ccccc1 (centres unmarked) [Example 261, diphenyl(leucinate-O,N)borane]: 109
- CNCCOB(c1ccc(COCc2ccc(B(OCCNC)c3ccc(C)c(Cl)c3)cc2)cc1)c1ccc(C)c(Cl)c1 [Example 421]: −1
- Cc1ccc(B(O)c2ccc(COCc3ccc(B(O)c4ccc(C)cc4)cc3)cc2)cc1 [Example 361]: 100
- OB(c1ccc(COCc2ccc(B(O)c3ccc(F)c(F)c3)cc2)cc1)c1ccc(F)c(F)c1 [Example 352]: 97
- COc1ccc(B(O)c2ccc(COCc3ccc(B(O)c4ccc(OC)cc4)cc3)cc2)cc1 [Example 410]: 130
- NCCCCC(N)C(=O)OB(c1ccccc1)c1cccc(COCc2cccc(B(OC(=O)C(N)CCCCN)c3ccccc3)c2)c1 (centres unmarked) [Example 475]: 21

---

Below: a set of entries, each annotated with reported TGase activity remaining (% of DMSO control = 100).
# Tested on: transglutaminase (TGase)
# experimental.details: Measurement of TG (TGase inhibitory activity, monodansyl cadaverine / N,N-dimethylcasein fluorescence, FDSS 3000)
# Format: biochemical
# setup.conditions: TGase inhibitory activity value, Table 1
readout.label: TGase activity remaining (% of DMSO control = 100)

- Cc1ccc(B(Oc2ccccc2N)c2ccc(C)c(Cl)c2)cc1Cl: 26
- NC(COB(c1ccccc1)c1ccc(COCc2ccc(B(OCC(N)Cc3ccccc3)c3ccccc3)cc2)cc1)Cc1ccccc1 (stereo not shown): 47
- CNCCOB(c1ccccc1)c1ccc(Oc2ccc(B(OCCNC)c3ccccc3)cc2)cc1: 10
- CCC(N)COB(c1ccccc1)c1ccccc1 (stereo not shown) [Example 228, diphenyl 2-aminobutylborinate]: 99
- CC(C)(C)B(O)c1ccccc1: 108
- Cc1cc(B(O)c2ccccc2)ccc1B(O)c1ccccc1 [Example 358, 2,5-di(phenylhydroxyboryl)toluene]: 112
- c1ccc(B(ON2CCCCC2)c2cccc(Oc3cccc(B(ON4CCCCC4)c4ccccc4)c3)c2)cc1: 115
- CCCCB(CCCC)OC(=O)C(N)CC(N)=O (stereo not shown): 91
- NCC(=O)OB(c1ccccc1)c1ccccc1 [Example 254, diphenyl(glycinate-O,N)borane]: 101
- CN(C)CCOB(c1cc(F)cc(F)c1)c1cc(F)cc(F)c1: 106
- NCCOB(c1ccccc1)c1ccc(-c2ccc(B(OCCN)c3ccccc3)s2)s1: 51
- OB(Cc1ccc(OCc2ccc(B(O)c3ccccc3)cc2)cc1)Cc1ccc(OCc2ccc(B(O)c3ccccc3)cc2)cc1: 106
- NCCOB(c1ccc(C(F)(F)F)cc1)c1c2ccccc2c(B(OCCN)c2ccc(C(F)(F)F)cc2)c2ccccc12: 44
- NCCNCCOB(c1ccccc1)c1ccc(Oc2ccc(B(OCCNCCN)c3ccccc3)cc2)cc1: 3
- Cc1ccc(B(OCCNCc2ccccc2)c2ccc(C)c(Cl)c2)cc1Cl: 86
- Cc1ccc(Cl)cc1B(OC(=O)C(N)CCCNC(N)=O)c1cc(Cl)ccc1C (stereo not shown): 88
- CC(C)(N)COB(c1ccc(Cl)c(F)c1)c1ccc(Cl)c(F)c1: 87
- NCCOB(c1ccc(COCc2cccc(B(OCCN)c3cc(F)c(F)c(F)c3)c2)cc1)c1cc(F)c(F)c(F)c1: 113
- NCCOB(c1cc(F)cc(Cl)c1)c1cc(F)cc(Cl)c1: 109
- CNCCOB(c1ccccc1)c1ccc(Oc2ccc(B(OCCNC)c3ccc(COCOC)cc3)cc2)cc1: 35
- NC(=O)CCC(N)C(=O)OB(c1ccsc1)c1ccc2sc3ccc(B(OC(=O)C(N)CCC(N)=O)c4ccsc4)cc3c2c1 (stereo not shown): 47
- Cc1ccc(B(OCCN2CCNCC2)c2ccc(C)c(Cl)c2)cc1Cl: 41
- Nc1ccccc1C(=O)OB(c1ccccc1)c1ccccc1: 91
- OB(c1ccc(F)cc1)c1ccc(COCc2ccc(B(O)c3ccc(F)cc3)cc2)cc1: 88
- c1ccc(B2OCCN3CCN(CCOB(c4ccccc4)c4ccc(cc4)Oc4ccc2cc4)CC3)cc1: 117
- CNCCOB(c1ccccc1)c1ccc(Oc2ccc(B(OCCNC)c3ccc(CO)cc3)cc2)cc1: 15
- CCN(CC)CC.CN(C)c1ccc2c(-c3ccc(NC(=S)NCCCCC(N)C(=O)OB(c4ccccc4)c4ccccc4)cc3C(=O)[O-])c3ccc(=[N+](C)C)cc-3oc2c1 (stereo not shown): 47
- NCCOB(c1ccccc1)c1ccccc1COCc1ccccc1B(OCCN)c1ccccc1: 68
- Cc1ccc(B(OCCN)c2ccc(-c3ccc(B(OCCN)c4ccc(C)cc4)cc3)cc2)cc1: 44
- Cc1cc(B(OCCN)c2ccc(COCc3ccc(B(OCCN)c4ccc(Cl)c(C)c4)cc3)cc2)ccc1Cl: 115
- OB(c1cc(F)cc(Cl)c1)c1cc(F)cc(Cl)c1: 122
